Reference for the values: patent US5646128A

- target desc: adenosine kinase (Bos taurus)
- Construct: endogenous in cells
- Sequence (A0AAA9RZ79 1-362): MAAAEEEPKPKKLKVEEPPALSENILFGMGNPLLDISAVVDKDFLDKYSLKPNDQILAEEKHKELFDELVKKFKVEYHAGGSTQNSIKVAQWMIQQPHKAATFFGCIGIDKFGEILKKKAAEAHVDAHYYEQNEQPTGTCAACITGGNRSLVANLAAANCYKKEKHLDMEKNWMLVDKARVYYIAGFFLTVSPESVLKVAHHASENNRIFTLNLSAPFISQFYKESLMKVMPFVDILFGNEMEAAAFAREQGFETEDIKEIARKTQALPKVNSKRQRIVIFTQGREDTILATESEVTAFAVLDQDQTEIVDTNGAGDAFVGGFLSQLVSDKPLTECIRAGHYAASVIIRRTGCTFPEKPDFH
- method: Adenosine kinase inhibition in intact cells (capillary endothelial cells from bovine heart)
- condition set: 20 μM 2'-deoxycoformycin, 5 μM [3H]adenosine
IC50 for assorted molecules
Express the result in nM but write the number alone.

smiles notation: C[C@H]1O[C@@H](n2nc(-c3ccccc3)c3c(Nc4ccccc4)ncnc32)[C@H](O)[C@@H]1O
units text: nM
IC50: 4.5

Next up:
[Q] Kindly indicate its recorded IC50. Item: `NC[C@H]1O[C@@H](n2nc(Br)c3c(N)ncnc32)[C@H](O)[C@@H]1O`
[A] 9

* * *

- target desc: purified pig heart adenosine kinase (Sus scrofa, UniProt A0A5G2R0F5)
- Sequence (A0A5G2R0F5 1-362): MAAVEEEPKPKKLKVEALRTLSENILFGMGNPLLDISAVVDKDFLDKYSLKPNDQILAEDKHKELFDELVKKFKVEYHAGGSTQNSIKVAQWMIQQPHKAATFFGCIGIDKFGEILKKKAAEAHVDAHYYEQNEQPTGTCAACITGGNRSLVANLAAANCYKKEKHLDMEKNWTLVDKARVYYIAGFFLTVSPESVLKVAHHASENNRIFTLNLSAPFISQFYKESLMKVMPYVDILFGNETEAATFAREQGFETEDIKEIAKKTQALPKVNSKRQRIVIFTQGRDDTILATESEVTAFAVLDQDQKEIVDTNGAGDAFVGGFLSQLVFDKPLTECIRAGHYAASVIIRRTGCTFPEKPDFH
recorded metric: IC50

[Q] Provide IC50, tested on purified pig heart adenosine kinase (Sus scrofa, UniProt A0A5G2R0F5), for `OC[C@H]1O[C@@H](n2cc(-c3ccco3)c3c(Nc4ccccc4)ncnc32)[C@H](O)[C@@H]1O` .
[A] < 10 nM
